- EXPERIMENTAL CONDITIONS: in ethyl acetate, 303.15 K

[
  {
    "COMPOUND STRUCTURE": "Cc1onc(-c2c(Cl)cccc2Cl)c1C(=O)N[C@@H]1C(=O)N2[C@@H]1SC(C)(C)[C@@H]2C(=O)[O-].O.[Na+]",
    "solubility (mole fraction)": 0.001
  }
]

* * *

- EXPERIMENTAL CONDITIONS: in acetonitrile, 303.15 K

[
  {
    "COMPOUND STRUCTURE": "Cc1onc(-c2c(Cl)cccc2Cl)c1C(=O)N[C@@H]1C(=O)N2[C@@H]1SC(C)(C)[C@@H]2C(=O)[O-].O.[Na+]",
    "solubility (mole fraction)": 0.000184
  }
]

* * *

- EXPERIMENTAL CONDITIONS: in acetone, 303.15 K
RECORDED ENDPOINT: solubility (mole fraction)

[
  {
    "COMPOUND STRUCTURE": "Cc1onc(-c2c(Cl)cccc2Cl)c1C(=O)N[C@@H]1C(=O)N2[C@@H]1SC(C)(C)[C@@H]2C(=O)[O-].O.[Na+]",
    "RECORDED ENDPOINT": "solubility (mole fraction)",
    "RESULT": 0.00128
  }
]

* * *

- EXPERIMENTAL CONDITIONS: in acetonitrile, 288.15 K

[
  {
    "COMPOUND STRUCTURE": "Cc1onc(-c2c(Cl)cccc2Cl)c1C(=O)N[C@@H]1C(=O)N2[C@@H]1SC(C)(C)[C@@H]2C(=O)[O-].O.[Na+]",
    "solubility (mole fraction)": 0.000144
  }
]

* * *

- EXPERIMENTAL CONDITIONS: in ethyl acetate, 318.15 K
RECORDED ENDPOINT: solubility (mole fraction)

[
  {
    "COMPOUND STRUCTURE": "Cc1onc(-c2c(Cl)cccc2Cl)c1C(=O)N[C@@H]1C(=O)N2[C@@H]1SC(C)(C)[C@@H]2C(=O)[O-].O.[Na+]",
    "NUMERIC VALUE": 0.00178
  }
]

* * *

- EXPERIMENTAL CONDITIONS: in acetone, 293.15 K

[
  {
    "COMPOUND STRUCTURE": "Cc1onc(-c2c(Cl)cccc2Cl)c1C(=O)N[C@@H]1C(=O)N2[C@@H]1SC(C)(C)[C@@H]2C(=O)[O-].O.[Na+]",
    "solubility (mole fraction)": 0.000795
  }
]

* * *

- EXPERIMENTAL CONDITIONS: in methanol, 313.15 K

[
  {
    "COMPOUND STRUCTURE": "Cc1onc(-c2c(Cl)cccc2Cl)c1C(=O)N[C@@H]1C(=O)N2[C@@H]1SC(C)(C)[C@@H]2C(=O)[O-].O.[Na+]",
    "solubility (mole fraction)": 0.0768
  }
]

* * *

- EXPERIMENTAL CONDITIONS: in ethyl acetate, 308.15 K
RECORDED ENDPOINT: solubility (mole fraction)

[
  {
    "COMPOUND STRUCTURE": "Cc1onc(-c2c(Cl)cccc2Cl)c1C(=O)N[C@@H]1C(=O)N2[C@@H]1SC(C)(C)[C@@H]2C(=O)[O-].O.[Na+]",
    "RESULT": 0.00123
  }
]

* * *

- EXPERIMENTAL CONDITIONS: in methanol, 293.15 K
RECORDED ENDPOINT: solubility (mole fraction)

[
  {
    "COMPOUND STRUCTURE": "Cc1onc(-c2c(Cl)cccc2Cl)c1C(=O)N[C@@H]1C(=O)N2[C@@H]1SC(C)(C)[C@@H]2C(=O)[O-].O.[Na+]",
    "NUMERIC VALUE": 0.0476
  }
]
